Reported values of pKd for individual entries
target_of_assay: T1, cyno CCL17 (Macaca fascicularis (cyno), UniProt Q8HYP9 24-94 (rhesus entry))
T1 construct: Biotinylated in the Fab ELISAs; also called cCCL17; cCCL-17
T1 sequence: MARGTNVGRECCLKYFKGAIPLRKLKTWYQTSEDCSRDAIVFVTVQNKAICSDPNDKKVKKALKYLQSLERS
assay_text: solution equilibrium affinity (MSD-SEA), TBST, 48 h at 4 °C
To interpret pKd, take it as minus log10 of a concentration measured in moles per litre.

binder	pKd
C17B241 (antibody, V domains shown, Full IgG1, kappa) VH: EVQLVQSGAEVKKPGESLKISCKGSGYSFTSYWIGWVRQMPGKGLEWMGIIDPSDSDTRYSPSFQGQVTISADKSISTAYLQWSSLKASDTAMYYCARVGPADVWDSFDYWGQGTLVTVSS VL: DIVMTQSPDSLAVSLGERATINCKSSQSVLNSFTNNNALAWYQQKPGQPPKLLIYEASTRESGVPDRFSGSGSGTDFTLTISSLQAEDVAVYYCQQTNSIPLTFGQGTKVEIK	9.23
C17B242 (antibody, V domains shown, Full IgG1, kappa) VH: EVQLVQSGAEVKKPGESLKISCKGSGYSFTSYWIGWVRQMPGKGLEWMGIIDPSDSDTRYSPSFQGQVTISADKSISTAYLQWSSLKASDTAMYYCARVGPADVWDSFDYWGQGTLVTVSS VL: DIVMTQSPDSLAVSLGERATINCKSSQSVLFSHDNLNTLAWYQQKPGQPPKLLIYHASTRESGVPDRFSGSGSGTDFTLTISSLQAEDVAVYYCQQYYAVPQTFGQGTKVEIK	9.42

Given C17B244 (antibody, V domains shown, Full IgG1, kappa) VH: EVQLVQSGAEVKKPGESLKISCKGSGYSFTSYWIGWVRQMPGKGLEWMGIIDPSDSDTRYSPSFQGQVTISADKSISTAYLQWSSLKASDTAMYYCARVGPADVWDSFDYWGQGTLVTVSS VL: DIVMTQSPDSLAVSLGERATINCKSSQSVLSSITNVNDLAWYQQKPGQPPKLLIYTASTRESGVPDRFSGSGSGTDFTLTISSLQAEDVAVYYCQQYYHDPFTFGQGTKVEIK , respond with its pKd.
9.25
